# Assay Notes: Neuroprotective effect against rat N27 cells assessed as reduction of BSO-induced increase in reactive oxygen species level at 0.5 uM treated 24 hrs after BSO withdrawal by DCFDA fluorescence assay relative to control
# Type: functional
# Parameters: scale not given: the % may be the effect or the level left
Hi there, I'd appreciate the recorded Activity for every entry that follows.
# unit: % | format: bare number

Request: Recorded Activity of COc1cc(/C=C/C(=O)CC(=O)/C=C/c2ccc(O)c(OC)c2)ccc1O [CURCUMIN] , please.
Response: 50

Request: For the molecule shown here, `COc1cc(/C=C/C(=O)CC(=O)/C=C/c2ccc(OC(=O)[C@@H](N)C(C)C)c(OC)c2)ccc1OC(=O)[C@@H](N)C(C)C` , give the reported Activity.
Response: 70

Request: Would you kindly share the measured Activity for `COc1cc(/C=C/C(=O)CC(=O)/C=C/c2ccc(OC(=O)[C@@H](N)CCC(=O)O)c(OC)c2)ccc1OC(=O)[C@@H](N)CCC(=O)O` ?
Response: 80

Request: Param item = `COc1cc(/C=C/C(=O)CC(=O)/C=C/c2ccc(OC(=O)/C=C/C=C/c3ccc(O)c(O)c3)c(OC)c2)ccc1OC(=O)/C=C/C=C/c1ccc(O)c(O)c1` ; retrieve measured Activity.
Response: 55
